molecular target: LRRK2(G2019S mutation, GST-LRRK2(amino acids 970-2527)) (Homo sapiens, UniProt Q5S007, G2019S); construct: GST-LRRK2(amino acids 970-2527); GST (N); purchased Life Technologies Corporation; assay: LRRK2 Km ATP LanthaScreen Assay; type: biochemical; settings: Km ATP LanthaScreen Assay; LRRK2 G2019S; mean IC50 values; read-out: LRRK2 IC50
Sequence (Q5S007 970-2527 G2019S): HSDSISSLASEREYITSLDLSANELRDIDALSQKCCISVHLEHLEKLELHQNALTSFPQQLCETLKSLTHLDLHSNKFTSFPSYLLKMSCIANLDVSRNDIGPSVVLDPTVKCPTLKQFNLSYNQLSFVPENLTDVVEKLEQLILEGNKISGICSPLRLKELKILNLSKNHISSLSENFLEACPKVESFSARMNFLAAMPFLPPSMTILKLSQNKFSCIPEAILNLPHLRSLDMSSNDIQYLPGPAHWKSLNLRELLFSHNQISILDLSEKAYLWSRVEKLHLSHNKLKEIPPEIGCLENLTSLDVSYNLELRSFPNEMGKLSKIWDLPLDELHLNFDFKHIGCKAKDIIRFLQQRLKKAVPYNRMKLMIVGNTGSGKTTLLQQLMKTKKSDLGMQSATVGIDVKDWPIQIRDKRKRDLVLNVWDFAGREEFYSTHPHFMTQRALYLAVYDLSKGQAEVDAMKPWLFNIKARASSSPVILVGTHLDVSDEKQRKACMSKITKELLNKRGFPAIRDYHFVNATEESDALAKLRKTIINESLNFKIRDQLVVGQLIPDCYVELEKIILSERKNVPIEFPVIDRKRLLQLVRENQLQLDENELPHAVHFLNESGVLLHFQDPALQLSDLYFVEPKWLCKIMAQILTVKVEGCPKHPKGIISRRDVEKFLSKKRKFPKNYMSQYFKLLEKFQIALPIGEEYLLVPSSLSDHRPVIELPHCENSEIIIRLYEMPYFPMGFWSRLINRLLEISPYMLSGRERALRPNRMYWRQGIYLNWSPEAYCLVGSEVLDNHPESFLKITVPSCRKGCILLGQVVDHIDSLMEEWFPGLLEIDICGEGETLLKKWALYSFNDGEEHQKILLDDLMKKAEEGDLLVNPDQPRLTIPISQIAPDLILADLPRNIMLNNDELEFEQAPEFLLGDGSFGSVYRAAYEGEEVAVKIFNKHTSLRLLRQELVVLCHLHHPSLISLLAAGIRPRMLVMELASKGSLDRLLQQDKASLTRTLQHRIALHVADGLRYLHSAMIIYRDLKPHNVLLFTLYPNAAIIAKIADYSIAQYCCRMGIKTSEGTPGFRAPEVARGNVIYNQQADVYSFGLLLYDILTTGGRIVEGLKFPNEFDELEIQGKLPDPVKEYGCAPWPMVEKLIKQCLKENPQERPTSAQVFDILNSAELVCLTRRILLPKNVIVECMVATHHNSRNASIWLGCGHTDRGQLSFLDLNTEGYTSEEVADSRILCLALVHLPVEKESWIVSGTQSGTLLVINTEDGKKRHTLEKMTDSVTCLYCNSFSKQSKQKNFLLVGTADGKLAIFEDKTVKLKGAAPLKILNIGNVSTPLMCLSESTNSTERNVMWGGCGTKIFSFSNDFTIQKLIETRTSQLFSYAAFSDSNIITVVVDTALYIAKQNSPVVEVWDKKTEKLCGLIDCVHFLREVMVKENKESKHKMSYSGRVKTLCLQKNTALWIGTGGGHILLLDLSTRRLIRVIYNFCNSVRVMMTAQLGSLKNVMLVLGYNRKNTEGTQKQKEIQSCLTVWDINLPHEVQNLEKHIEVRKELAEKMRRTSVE

compound: Cc1nc(C)c(CC(=O)Nc2cc(-c3n[nH]c4ccc(OC(C)C)cc34)ccn2)s1
display unit: nM
IC50: 34.9
--
compound: c1ccc2c(c1)CN(c1cc(-c3n[nH]c4ccccc34)ccn1)C2
display unit: nM
IC50: 87
--
compound: CN1CCN(c2cc(-c3n[nH]c4ccccc34)ccn2)CC1
display unit: nM
IC50: 42
--
compound: CC(C)Oc1ccc2[nH]nc(-c3ccnc(NC(=O)c4ccno4)c3)c2c1
display unit: nM
IC50: 21.4
--
compound: O=C1CCC(CNc2cc(-c3n[nH]c4ccccc34)ccn2)N1 (stereo not drawn)
display unit: nM
IC50: 26
--
compound: COCCNc1cc(-c2n[nH]c3ccccc23)ccn1
display unit: nM
IC50: 46
--
compound: c1ccc2c(-c3ccnc(N4CCSCC4)c3)n[nH]c2c1
display unit: nM
IC50: 46
--
compound: CC(C)Oc1ccc2[nH]nc(-c3ccnc(NCCO)c3)c2c1
display unit: nM
IC50: 7.3
--
compound: CC(C)Oc1ccc2[nH]nc(-c3ccnc(NC(=O)Cc4ccsc4)c3)c2c1
display unit: nM
IC50: 34.4

###

target: LRRK2(G2019S mutation, GST-LRRK2(amino acids 970-2527)) (Homo sapiens, UniProt Q5S007, G2019S); construct: GST-LRRK2(amino acids 970-2527); GST (N); purchased Life Technologies Corporation; assay: LRRK2 Km ATP LanthaScreen Assay; type: biochemical; details: Km ATP LanthaScreen Assay; LRRK2 G2019S; mean IC50 values; read-out: LRRK2 IC50
pIC50: −log10 of the molar value.
Catalogue of pIC50 readings, one per entry.

compound: CC(CO)Nc1cc(-c2n[nH]c3ccc(OC(C)C)cc23)ccn1 (stereo not drawn)
pIC50: 5.67

compound: CC(C)Oc1ccc2[nH]nc(-c3ccnc(NC(=O)c4ccnc(-n5cnnn5)c4)c3)c2c1
pIC50: 7.62

compound: CCNc1cc(-c2n[nH]c3ccc(Nc4cccc(S(C)(=O)=O)c4)cc23)ccn1
pIC50: 7.46

compound: CC(C)Oc1ccc2[nH]nc(-c3ccnc(NC(=O)CC4COCCO4)c3)c2c1 (stereo not drawn)
pIC50: 7.48

compound: CC(C)COc1ccc2[nH]nc(-c3ccnc(N4CCOCC4)c3)c2c1
pIC50: 8.23

compound: CN1CCN(c2cc(-c3n[nH]c4ccc(-c5ccnc(O)c5)cc34)ccn2)CC1
pIC50: 8.57

compound: CC(C)Oc1ccc2[nH]nc(-c3ccnc(NC(=O)c4ccc(C#N)cc4)c3)c2c1
pIC50: 6.95

compound: c1ccc2c(-c3ccnc(N4CCC5(CC4)OCCO5)c3)n[nH]c2c1
pIC50: 7.44

compound: CC(C)Oc1ccc2[nH]nc(-c3ccnc(NC(=O)c4ccc5c(c4)C(=O)NC5)c3)c2c1
pIC50: 7.28

compound: OC[C@H]1CCN(c2cc(-c3n[nH]c4ccc(OC(F)(F)F)cc34)ccn2)C1
pIC50: 7.02

compound: c1ccc2c(-c3ccnc(N4CCCCC4)c3)n[nH]c2c1
pIC50: 7.80

compound: COc1ccc(C2CC2C(=O)Nc2cc(-c3n[nH]c4ccc(OC(C)C)cc34)ccn2)cc1 (stereo not drawn)
pIC50: 6.11

compound: CC(C)Oc1ccc2[nH]nc(-c3ccnc(N4CCCC(CO)C4)c3)c2c1 (stereo not drawn)
pIC50: 8.82

compound: CO[C@H]1CN(c2cc(-c3n[nH]c4ccc(OC(C)C)cc34)ccn2)C[C@@H]1O
pIC50: 7.57

compound: FC(F)(F)Oc1ccc2[nH]nc(-c3ccnc(N4CC(n5cccn5)C4)c3)c2c1
pIC50: 6.50

compound: CC(C)Oc1ccc2[nH]nc(-c3ccnc(N4CCC(c5ccncc5)C4)c3)c2c1 (stereo not drawn)
pIC50: 8.66

compound: CN1CC=C2CN(c3cc(-c4n[nH]c5ccccc45)ccn3)CC21 (stereo not drawn)
pIC50: 7.85

compound: COC1CN(c2cc(-c3n[nH]c4ccccc34)ccn2)C1
pIC50: 7.51

compound: CC(C)Oc1ccc2[nH]nc(-c3ccnc(NC(=O)C4CC(F)(F)C4)c3)c2c1
pIC50: 7.13

compound: CN(C)CC1(O)CCN(c2cc(-c3n[nH]c4ccccc34)ccn2)CC1
pIC50: 7.60

compound: C[C@@H]1C[C@@H](O)CN1c1cc(-c2n[nH]c3ccccc23)ccn1
pIC50: 7.48

compound: COCCN(C)c1cc(-c2n[nH]c3ccccc23)ccn1
pIC50: 7.32

compound: CN1CCCC(CN(C)c2cc(-c3n[nH]c4ccccc34)ccn2)C1 (stereo not drawn)
pIC50: 7.12

compound: c1ccc2c(-c3ccnc(N4CCC(N5CCCC5)CC4)c3)n[nH]c2c1
pIC50: 7.35

compound: COC1CN(c2cc(-c3n[nH]c4ccc(OC(C)C)cc34)ccn2)C1
pIC50: 8.28

compound: FC(F)(F)Oc1ccc2[nH]nc(-c3ccnc(N4CCCCC4)c3)c2c1
pIC50: 6.55

compound: c1ccc2c(-c3ccnc(N4CCCC4)c3)n[nH]c2c1
pIC50: 7.77

###

molecular target: LRRK2(G2019S mutation, GST-LRRK2(amino acids 970-2527)) (Homo sapiens, UniProt Q5S007, G2019S); construct: GST-LRRK2(amino acids 970-2527); GST (N); purchased Life Technologies Corporation; assay: LRRK2 Km ATP LanthaScreen Assay; type: biochemical; details: Km ATP LanthaScreen Assay; LRRK2 G2019S; mean IC50 values; read-out: LRRK2 IC50
pIC50: −log10 of the molar value.
Catalogue of pIC50 readings, one per entry.

compound: CN1CCC2(CCN(c3cc(-c4n[nH]c5ccccc45)ccn3)C2)C1 (stereo not drawn) [Example 34]
pIC50: 7.66

compound: c1ccc2c(-c3ccnc(N4CCC5OCCC54)c3)n[nH]c2c1 (stereo not drawn) [Example 63]
pIC50: 7.40

compound: O=C1CN(c2cc(-c3n[nH]c4ccccc34)ccn2)CCCN1 [Example 48]
pIC50: 7.27

compound: O=C1CN(c2cc(-c3n[nH]c4ccccc34)ccn2)CCN1 [Example 49]
pIC50: 7.64

compound: COC1(C)CN(c2cc(-c3n[nH]c4ccc(OC(F)(F)F)cc34)ccn2)C1 [Example 253]
pIC50: 6.70

compound: CN1CCC(Nc2cc(-c3n[nH]c4ccccc34)ccn2)C1=O (stereo not drawn) [Example 68]
pIC50: 6.97

compound: CC(C)Oc1ccc2[nH]nc(-c3ccnc(NCC4CCCO4)c3)c2c1 (stereo not drawn) [Example 135]
pIC50: 8.49

compound: CCOc1ccc2[nH]nc(-c3ccnc(N4CCn5ccnc5C4)c3)c2c1 [Example 226]
pIC50: 7.72

compound: CC(C)Oc1ccc2[nH]nc(-c3ccnc(NC(=O)CC4CC4)c3)c2c1 [Example 152]
pIC50: 7.45

compound: CC(C)Oc1ccc2[nH]nc(-c3ccnc(NC(=O)c4ccccc4-n4cncn4)c3)c2c1 [Example 146]
pIC50: 7.43

compound: FC(F)(F)Oc1ccc2[nH]nc(-c3ccnc(N4CCN(C5CC5)CC4)c3)c2c1 [Example 244]
pIC50: 6.73

compound: FC1(F)CCN(c2cc(-c3n[nH]c4ccccc34)ccn2)CC1 [Example 28]
pIC50: 7.24

compound: Oc1ccc2[nH]nc(-c3ccnc(N4CCCCC4)c3)c2c1 [Example 254]
pIC50: 8.00

compound: c1cc(-c2n[nH]c3ccc(CNC4CCCNC4)cc23)cc(N2CCOCC2)n1 (stereo not drawn) [Example 96]
pIC50: 6.96

compound: CCN(CC)CCNCc1ccc2[nH]nc(-c3ccnc(N4CCOCC4)c3)c2c1 [Example 95]
pIC50: 6.56

compound: OCCOCCNc1cc(-c2n[nH]c3ccccc23)ccn1 [Example 58]
pIC50: 7.29

compound: CC(C)Oc1ccc2[nH]nc(-c3ccnc(N4CCC(n5cccn5)CC4)c3)c2c1 [Example 173]
pIC50: 8.31

compound: c1ccc2c(-c3ccnc(NCCn4ccnc4)c3)n[nH]c2c1 [Example 64]
pIC50: 7.46

compound: CC(C)Oc1ccc2[nH]nc(-c3ccnc(N4CCCC(O)C4)c3)c2c1 (stereo not drawn) [Example 170]
pIC50: 8.19

compound: CC(C)Oc1ccc2[nH]nc(-c3ccnc(NC(=O)C4CC45CCCC5)c3)c2c1 (stereo not drawn) [Example 160]
pIC50: 6.85

compound: c1ccc2c(-c3ccnc(NCCN4CCOCC4)c3)n[nH]c2c1 [Example 73]
pIC50: 7.46

compound: CC(C)Oc1ccc2[nH]nc(-c3ccnc(N4CCc5ccccc5C4)c3)c2c1 [Example 139]
pIC50: 7.74

compound: c1ccc(N2CCN(c3cc(-c4n[nH]c5ccccc45)ccn3)CC2)nc1 [Example 13]
pIC50: 7.66

compound: c1ccc2c(-c3ccnc(N4CCC(CN5CCOCC5)CC4)c3)n[nH]c2c1 [Example 40]
pIC50: 7.55

compound: CCOc1ccc2[nH]nc(-c3ccnc(N4CC5C(C4)C5(C#N)c4ccccn4)c3)c2c1 (stereo not drawn) [Example 229]
pIC50: 6.95

compound: CC(C)Oc1ccc2[nH]nc(-c3ccnc(NCc4ccccn4)c3)c2c1 [Example 132]
pIC50: 8.66

compound: CN1CCN(c2cc(-c3n[nH]c4ccc(OC(F)(F)F)cc34)ccn2)CC1 [Example 234]
pIC50: 7.08

compound: CC(C)Oc1ccc2[nH]nc(-c3ccnc(NC4Cc5ccccc5C4)c3)c2c1 [Example 130]
pIC50: 7.88

compound: CC(C)Oc1ccc2[nH]nc(-c3ccnc(NC(=O)C(C)c4ccccc4)c3)c2c1 (stereo not drawn) [Example 151]
pIC50: 7.28

compound: CC(C)Oc1ccc2[nH]nc(-c3ccnc(N4CC(S(C)(=O)=O)C4)c3)c2c1 [Example 184]
pIC50: 8.27

compound: CC(C)Oc1ccc2[nH]nc(-c3ccnc(N4C[C@@H]5C[C@H]4CO5)c3)c2c1 [Example 176]
pIC50: 8.15

compound: CO[C@H]1CN(c2cc(-c3n[nH]c4ccc(OC(F)(F)F)cc34)ccn2)C[C@@H]1O [Example 238]
pIC50: 6.78

compound: O=C1CCN(c2cc(-c3n[nH]c4ccccc34)ccn2)CCN1 [Example 72]
pIC50: 7.24

compound: COCCN(C)c1cc(-c2n[nH]c3ccc(OC(C)C)cc23)ccn1 [Example 136]
pIC50: 8.31

compound: OCCC1CN(c2cc(-c3n[nH]c4ccccc34)ccn2)CCO1 (stereo not drawn) [Example 66]
pIC50: 7.82

compound: CC(C)Oc1ccc2[nH]nc(-c3ccnc(NC(=O)CC4CCC(=O)N4)c3)c2c1 (stereo not drawn) [Example 165]
pIC50: 7.63
